Molecular target: RNA-binding protein pos-1 (Caenorhabditis elegans)
Sequence (G5EF15 whole entry): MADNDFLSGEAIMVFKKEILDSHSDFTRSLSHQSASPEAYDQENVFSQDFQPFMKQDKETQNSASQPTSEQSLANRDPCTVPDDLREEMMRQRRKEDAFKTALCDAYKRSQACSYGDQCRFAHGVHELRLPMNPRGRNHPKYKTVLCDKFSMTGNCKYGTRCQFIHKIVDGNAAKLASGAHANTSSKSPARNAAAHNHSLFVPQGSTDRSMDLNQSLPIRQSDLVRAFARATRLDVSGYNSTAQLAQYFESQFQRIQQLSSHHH
Assay: disruptors of C. elegans POS-1 RNA interaction – biochemical, fluorescence polarization, dose response (AID 1964);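 note: purified POS-1 fused to maltose binding protein made in E. coli; potency of compounds blocking POS-1 binding to fluorescent RNA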
Active and inactive are the calls of the source.
Hi there, I'd appreciate the recorded EC50 for every entry that follows.

CC(C)OC(=O)c1nn2c(C(F)(F)F)cc(-c3ccc(Br)o3)nc2c1Br has a reported EC50 of > 300 µM (not active)

Cc1n[nH]c(O)c1N=Nc1ccc(S(N)(=O)=O)cc1 has a reported EC50 of 78.9 µM (active)

O=c1c2ccccc2nc(N/N=C/c2ccc(O)cc2)n1O has a reported EC50 of > 300 µM (not active)

COCCNC(=O)C1Nc2ccc(C(F)(F)F)cc2C2C=CCC12 (centres undefined) has a reported EC50 of > 300 µM (not active)

---

target: UniProt:Q96RJ0; assay: Fluorescence-based cell-based high throughput dose response assay to identify agonists of the human trace amine associated receptor 1 (TAAR1).; type: functional
Sequence (Q96RJ0 whole entry): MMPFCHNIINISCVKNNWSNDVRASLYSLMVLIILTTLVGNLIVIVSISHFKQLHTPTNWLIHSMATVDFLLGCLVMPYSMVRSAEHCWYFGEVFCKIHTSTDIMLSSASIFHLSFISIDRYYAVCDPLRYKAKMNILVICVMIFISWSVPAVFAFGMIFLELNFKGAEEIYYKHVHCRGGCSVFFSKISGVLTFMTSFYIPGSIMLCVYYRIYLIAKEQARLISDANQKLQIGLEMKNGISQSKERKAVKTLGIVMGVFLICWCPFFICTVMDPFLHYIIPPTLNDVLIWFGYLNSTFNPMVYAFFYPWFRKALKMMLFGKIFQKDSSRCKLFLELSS
The source made the active and inactive calls.
result_type: EC50

NCCc1ccc(O)cc1 has a reported EC50 of 0.178 µM (active)

CCCCc1c(-c2ccccc2OC)ncn1CCc1cccc(F)c1 has a reported EC50 of 2.73 µM (active)

O=C(O)c1ccccc1C(=O)NCC(O)c1ccccc1 (centres undefined) has a reported EC50 of 5.05 µM (active)

O=C(Nc1ccc(F)cc1)Nc1ccc(Oc2ncnc3cc(Cl)ccc23)nc1 has a reported EC50 of > 29.9 µM (inactive)

---

target: Cytochrome P450 2C19 (Homo sapiens, UniProt P33261); assay: Cytochrome panel assay with activity outcomes. Panel member name: p450-cyp2c19 Compounds with AC50 equal or less than 10 uM are considered active; format: functional; conditions: read-out: AC50
Sequence (P33261 whole entry): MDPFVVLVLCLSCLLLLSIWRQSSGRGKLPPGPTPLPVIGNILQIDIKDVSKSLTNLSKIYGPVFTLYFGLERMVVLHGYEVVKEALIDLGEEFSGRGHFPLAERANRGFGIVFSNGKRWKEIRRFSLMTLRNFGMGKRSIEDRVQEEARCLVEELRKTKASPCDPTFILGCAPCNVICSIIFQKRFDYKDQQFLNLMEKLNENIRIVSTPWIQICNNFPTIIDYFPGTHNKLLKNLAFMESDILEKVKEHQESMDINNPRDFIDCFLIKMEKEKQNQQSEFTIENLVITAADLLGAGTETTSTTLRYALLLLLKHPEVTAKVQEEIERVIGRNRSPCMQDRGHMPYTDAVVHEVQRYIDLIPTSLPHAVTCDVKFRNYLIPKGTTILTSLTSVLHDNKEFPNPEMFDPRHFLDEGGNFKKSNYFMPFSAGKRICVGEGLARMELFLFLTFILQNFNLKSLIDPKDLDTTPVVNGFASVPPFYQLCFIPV
Hi there, I'd appreciate the recorded AC50 for every entry that follows.

Cc1ccccc1C(=O)Nc1ccc(C(=O)NNC(=O)CCCOc2ccc(Cl)cc2Cl)cc1 has a reported AC50 of 17.8 µM (inconclusive)

O=C(Nc1cccc2ccccc12)c1ccccc1 has a reported AC50 of 2.51 µM (inconclusive)

O=C(O)CC[C@@H](NC(=O)c1ccccc1C(=O)O)C(=O)O has a reported AC50 of 0.0251 µM (inconclusive)

CCCCNC1=N/C(=C\c2ccco2)C(=O)N1c1ccccc1 has a reported AC50 of 39.8 µM (inconclusive)

O=S(=O)(c1ccccc1)N1CCC2(CCN(c3ccccc3)CC2)CC1 has a reported AC50 of 10 µM (inconclusive)

CCOC(=O)N/N=C\c1ccc([N+](=O)[O-])o1 has a reported AC50 of 25.1 µM (inconclusive)

CCOc1ccc(CSC(CC(=O)O)C(=O)O)cc1 (stereo unspecified) has a reported AC50 of 14.1 µM (inconclusive)

CCC/C=C(\CCC)C(NS(=O)(=O)c1cccc2cccnc12)c1ccc(-c2ccccc2)cc1 (stereo unspecified) has a reported AC50 of 2.51 µM (inconclusive)

CC(=O)c1cccc(NC(=O)c2csc(-n3nc(C)cc3C(F)(F)F)n2)c1 has a reported AC50 of 7.94 µM (inconclusive)

COc1ccc(C(=O)N2CCC3(CCCN(c4ccccn4)C3)CC2)cc1 has a reported AC50 of 25.1 µM (inconclusive)

COc1ccc2nc(NC(C)=O)sc2c1 has a reported AC50 of 39.8 µM (inconclusive)

CCCc1nnc(SCC(=O)N2CCCCC2)n1CC1CCCO1 (stereo unspecified) has a reported AC50 of 17.8 µM (inconclusive)

CCOC(=O)c1c(C)oc2c1c(/C=N/C1CCS(=O)(=O)C1)c(O)c1ccccc12 (stereo unspecified) has a reported AC50 of 1.78 µM (inconclusive)

O=C(COc1ccc([N+](=O)[O-])cc1)Nc1ccc(C(=O)NCc2cccnc2)cc1 has a reported AC50 of 7.94 µM (inconclusive)

CCCCNC(=O)NS(=O)(=O)c1ccc(C(=O)OC(C)C)o1 has a reported AC50 of 39.8 µM (inconclusive)

CC(=O)Nc1c(C)nn(-c2ccc(C)c(C)c2)c1C has a reported AC50 of 39.8 µM (inconclusive)

C/C(=N/OC(=O)c1cccc(Cl)c1)c1nccs1 has a reported AC50 of 20 µM (inconclusive)

COC(=O)[C@@]1(Cc2ccc(OC)cc2)[C@H]2c3cc(C(=O)N(C)C)n(CCc4c[nH]c5ccc(O)cc45)c3C[C@H]2CN1C(=O)c1ccccc1 has a reported AC50 of 25.1 µM (inconclusive)

COC1=C(OC)C(=O)c2ccccc2C1=O has a reported AC50 of 31.6 µM (inconclusive)

C/C(=N\NC(=O)c1ccc(Cl)cc1)c1ccc(Br)s1 has a reported AC50 of 17.8 µM (inconclusive)

COC(=O)C1(C)C=C2C(=C(c3ccccc3)C(=O)C2C)CN1 (stereo unspecified) has a reported AC50 of 39.8 µM (inconclusive)

---

target: Hepatocyte nuclear factor 4-alpha (Homo sapiens, UniProt P41235); format: functional, cell-based;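 note: biochemical luminescence-based dose-response counterscreen measuring inhibition of HNF4 dimerization, run alongside a screen for blockers of ABHD5–perilipin-5 interaction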;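 note: split luciferase complementation of HNF4 fusion proteins in cell lysate measuring dimerization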
Sequence (P41235 whole entry, the tested form may be a part): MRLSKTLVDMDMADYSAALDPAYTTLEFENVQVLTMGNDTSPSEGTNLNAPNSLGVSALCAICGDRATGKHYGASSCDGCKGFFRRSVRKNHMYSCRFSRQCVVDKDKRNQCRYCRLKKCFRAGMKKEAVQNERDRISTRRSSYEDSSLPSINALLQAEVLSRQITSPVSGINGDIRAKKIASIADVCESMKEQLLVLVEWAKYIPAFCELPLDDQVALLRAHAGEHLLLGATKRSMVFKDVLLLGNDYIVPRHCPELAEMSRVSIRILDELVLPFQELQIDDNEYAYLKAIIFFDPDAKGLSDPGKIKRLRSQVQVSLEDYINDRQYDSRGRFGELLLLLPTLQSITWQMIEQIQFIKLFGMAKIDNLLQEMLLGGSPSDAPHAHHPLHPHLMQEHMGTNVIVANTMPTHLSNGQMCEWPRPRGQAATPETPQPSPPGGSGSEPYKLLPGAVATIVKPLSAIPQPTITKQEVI
Activity calls are given as the source filed them.
result_type: IC50

COc1ccc(/C=C/C(=O)c2cc(F)ccc2OC(=O)c2ccc(OC)c(OC)c2)cc1OC has a reported IC50 of 5.27 µM (active)

O=S(=O)(NC1=NCCCCC1)c1ccc2sc(NS(=O)(=O)c3ccc4ccccc4c3)nc2c1 has a reported IC50 of 9.21 µM (active)

[H]/N=C(\N/C(=N/[H])NCCCCCCNC(=N)NC(=N)Nc1ccc(Cl)cc1)Nc1ccc(Cl)cc1 [CHLORHEXIDINE] has a reported IC50 of 23.5 µM (inactive)

Cc1ccc(SC2=C(Sc3ccc(C)cc3)C(=O)c3ccccc3C2=O)cc1 has a reported IC50 of 1.38 µM (active)

---

target: Kappa-type opioid receptor (Homo sapiens, UniProt P41145); assay type: functional
Sequence (P41145 whole entry): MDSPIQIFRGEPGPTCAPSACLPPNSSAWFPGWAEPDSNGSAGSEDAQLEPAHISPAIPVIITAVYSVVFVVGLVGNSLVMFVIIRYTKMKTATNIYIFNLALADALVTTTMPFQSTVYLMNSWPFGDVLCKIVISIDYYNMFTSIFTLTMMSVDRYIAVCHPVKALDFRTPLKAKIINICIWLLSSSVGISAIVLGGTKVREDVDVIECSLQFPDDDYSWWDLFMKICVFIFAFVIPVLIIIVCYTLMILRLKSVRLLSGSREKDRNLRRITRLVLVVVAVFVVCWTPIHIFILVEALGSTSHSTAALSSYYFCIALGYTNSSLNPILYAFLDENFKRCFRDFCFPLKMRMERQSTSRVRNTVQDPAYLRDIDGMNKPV
pIC50: −log10 of the molar value.
result_type: pIC50

Kindly note: Kappa-type opioid receptor (Homo sapiens, UniProt P41145), O=[N+]([O-])c1ccccc1S(=O)(=O)Nc1cccc2cccnc12 , pIC50 value reported: < 4.49

Kindly note: Kappa-type opioid receptor (Homo sapiens, UniProt P41145), O=C(NNC(=O)C12CC3CC(CC(C3)C1)C2)c1ccccn1 , pIC50 value reported: < 4.49

Kindly note: Kappa-type opioid receptor (Homo sapiens, UniProt P41145), O=C1/C(=C\c2ccc(O)cc2)SC(=S)N1c1cccnc1 , pIC50 value reported: < 4.49

---

experiment: HGIII-sPLA2 enzyme inhibition potency – biochemical, QFRET, IC50, dose response (AID 743457);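 note: green fluorescence rise as the enzyme cleaves BODIPY PC-A2 in liposomes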
Active and inactive are the calls of the source.
result_type: IC50

CCOC(=O)C(=NC(C)CC)NNc1cccc(C(F)(F)F)c1 (stereo unspecified) has a reported IC50 of > 122 µM (inactive)

Nc1cccc(Nc2nc(OC(C(F)(F)F)C(F)(F)F)nc(OC(C(F)(F)F)C(F)(F)F)n2)c1 has a reported IC50 of > 122 µM (inactive)

CCCn1c(N=C(S)Nc2ccccc2)nc2ccccc21 has a reported IC50 of 112 µM (inactive)

Cc1cccc2sc(NNC(=O)c3ccc(S(=O)(=O)N4CCCC(C)C4)cc3)nc12 (stereo unspecified) has a reported IC50 of 21.3 µM (inactive)

COc1ccc2c(c1)c[n+](C)c1c3cc(OC)c(OC)cc3ccc21 has a reported IC50 of > 122 µM (inactive)

Cc1ccc(NC(S)=NNC(=O)c2nnn(-c3ccccc3)c2C)cc1 has a reported IC50 of > 122 µM (inactive)

---

target: Nonstructural protein 1 (Influenza A virus, UniProt Q194T2); type: functional, Influenza A virus (A/California/07/2009(H1N1))
Sequence (Q194T2 whole entry): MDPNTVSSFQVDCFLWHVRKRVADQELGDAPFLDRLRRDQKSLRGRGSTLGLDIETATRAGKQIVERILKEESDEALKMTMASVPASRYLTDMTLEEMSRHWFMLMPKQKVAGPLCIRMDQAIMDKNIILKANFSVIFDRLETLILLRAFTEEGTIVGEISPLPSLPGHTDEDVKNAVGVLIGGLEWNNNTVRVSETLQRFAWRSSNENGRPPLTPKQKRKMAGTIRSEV
Activity calls are given as the source filed them.
result_type: IC50

Cc1cccc2sc(NNC(=O)c3ccc(S(=O)(=O)N4CCCC(C)C4)cc3)nc12 (centres undefined) has a reported IC50 of > 100 µM (active)

Nc1nc(-c2ccccc2)c(N=Nc2cccc3ccccc23)s1 has a reported IC50 of 9.98 µM (active)

NCCCNC(=O)Cn1c(=O)c2c3c(sc2n(Cc2ccccc2)c1=O)CCCC3 has a reported IC50 of > 100 µM (active)

Cc1ccccc1N=C(S)NCc1ccc2[nH]c3c(c2c1)CCCC3 has a reported IC50 of > 100 µM (active)

CCSc1nnc(NC(=O)c2ccccn2)s1 has a reported IC50 of 10.6 µM (active)

CSC(=S)NN=C(C)c1cccc(C)n1 has a reported IC50 of 1.1 µM (active)

CN(C)C1CCN(Cc2cc(COCc3ccccc3)c3cccnc3c2O)C1 (centres undefined) has a reported IC50 of 5.98 µM (active)

CN(C)CCCN(C(=O)c1ccc2c(c1)CCCC2)c1nc2ccc(Cl)cc2s1 has a reported IC50 of > 100 µM (active)

O=C(C=P(c1ccccc1)(c1ccccc1)c1ccccc1)c1ccccc1-c1ccccc1C(=O)C=P(c1ccccc1)(c1ccccc1)c1ccccc1 has a reported IC50 of 58.5 µM (active)
